# System: T. gondii RH strain (RH-Tub-eYFP) tachyzoites
# METHOD_DESCRIPTION: microbe, parasite or virus in culture
# Assay type: cell-based, Toxoplasma gondii
# APPLIED_CONDITIONS: library screen at 2 μg/mL, 72 h, % growth, replicate 2

COMPOUND	Tg_72h_%Growth_Rep2 [%]
CCCN1C[C@H](C)[C@@H](O)[C@](C)(O)[C@@H](CC)OC(=O)[C@H](C)[C@@H](O[C@H]2C[C@@](C)(OC)[C@@H](O)[C@H](C)O2)[C@H](C)[C@@H](O[C@@H]2O[C@H](C)C[C@H](N(C)C)[C@H]2O)[C@](C)(O)C[C@H]1C [Gamithromycin, reference compound]	38.81
CO[C@H]1C[C@H](O[C@H]2[C@H](C)O[C@@H](O[C@@H]3/C(C)=C/C[C@@H]4C[C@@H](C[C@]5(C=C[C@H](C)[C@@H](C(C)C)O5)O4)OC(=O)[C@@H]4C=C(C)[C@@H](O)[C@H]5OC/C(=C\C=C\[C@@H]3C)[C@]54O)C[C@@H]2OC)O[C@@H](C)[C@@H]1O	75.78
C=C(C)[C@@H]1CC[C@]2(C(=O)OC)CC[C@]3(C)[C@H](CC[C@@H]4[C@@]5(C)CC[C@H](O)C(C)(C)[C@@H]5CC[C@]43C)[C@@H]12 [Betulinate, Methyl]	84.36
CC(=O)O[C@@H]1[C@@H]2O[C@H]2[C@@](C)(O)C(=O)[C@@H](C)C/C=C\[C@H]2[C@H](O)C(C)=C(C)[C@H]3[C@H](Cc4ccccc4)NC(=O)[C@@]123	1.44

====

Listing: Tg_72h_%Growth_Rep2 of selected compounds
# Test system: T. gondii RH strain (RH-Tub-eYFP) tachyzoites
# METHOD_DESCRIPTION: microbe, parasite or virus in culture
# Type: cell-based, Toxoplasma gondii
# APPLIED_CONDITIONS: library screen at 2 μg/mL, 72 h, % growth, replicate 2
*1 amine or outer side, *2 acyl side, *3 side chain or, on linkers, in order; H or OH if unused. Where a SMILES comes first, the peptide text is derived from it. Bridges are numbered along the chain shown (N, C = ends). [ ]: non-standard residue; d: D form. hTyr(3S-OH,4S-OH,3'-OSO3H) = N[C@H](C(=O)O)[C@H](O)[C@@H](O)c1ccc(O)c(OS(=O)(=O)O)c1; Orn(4R-OH,5R-OH) = O=C([C@H](C[C@@H](O)[C@@H](O)N[*:3])N[*:1])[*:2]; Pro(3S-OH,4S-Me) = C[C@H]1CN[C@H](C(=O)O)[C@H]1O; Gln(3R-OH) = NC(=O)C[C@@H](O)[C@H](N)C(=O)O; Hyp = O=C(O)[C@@H]1C[C@@H](O)CN1
ENDPOINT_LABEL: Tg_72h_%Growth_Rep2 (%)

COMPOUND	ENDPOINT_LABEL	OBSERVED_VALUE
CC1=C[C@H]2C(=O)O[C@H]3C[C@@H](C/C=C(/C)[C@@H](O)[C@@H](C)/C=C\C=C4CO[C@H]([C@@H]1O)[C@@]42O)O[C@@]1(C=C[C@H](C)[C@@H](C2CCCCC2)O1)C3	Tg_72h_%Growth_Rep2	107.39
CC(=O)c1c(O)cc(O)c(C(C)=O)c1O	Tg_72h_%Growth_Rep2	94.75
COC1=C(O)c2c(O)cc(C)c3c(O)cc(O)c(c23)C1=O	Tg_72h_%Growth_Rep2	92.93
CO[C@H]1C[C@H](O[C@H]2[C@H](C)O[C@@H](O[C@@H]3/C(C)=C/C[C@@H]4C[C@@H](C[C@]5(C=C[C@H](C)[C@@H](C6CCCCC6)O5)O4)OC(=O)C4=C[C@H](C)[C@@H](O)[C@H]5OC/C(=C\C=C[C@@H]3C)[C@@]45O)C[C@@H]2OC)O[C@@H](C)[C@@H]1O	Tg_72h_%Growth_Rep2	104.19
CN1C(=O)c2ccccc2-n2c(nc3ccccc3c2=O)/C1=C\c1ccccc1	Tg_72h_%Growth_Rep2	82.96
CC(C)=CCc1cc(C=C2OC(=O)C(c3cc(CC=C(C)C)c(O)cc3O)=C2O)ccc1O	Tg_72h_%Growth_Rep2	99.19
COC1=C(OC)C(=O)C(C)=C(C)C1=O [Aurantiogliocladin]	Tg_72h_%Growth_Rep2	99.65
CC(=O)NCCc1c[nH]c2ccc(O)cc12	Tg_72h_%Growth_Rep2	97.07
COc1ccc(-c2coc3cc(O)cc(O)c3c2=O)cc1	Tg_72h_%Growth_Rep2	92.06
COCCC[C@H]1O[C@@](O)([C@H](C)C2CC(OC)C(O)/C=C(C)/C=C(C)/C=C(/C)C(O[C@H]3O[C@H](C)[C@@H](OC)[C@H](O)[C@H]3O)C(C)/C=C(CO)/C=C(OC)\C=C(/C)C(=O)O2)[C@H](OC)[C@@H](O)[C@]1(C)O[C@H]1C[C@H](O)[C@H](O[C@H]2C[C@@](C)(O)[C@H](O)[C@@H](C)O2)[C@@H](C)O1 (stereo partly drawn)	Tg_72h_%Growth_Rep2	72.55
C=CC(C)(C)C12CC3C(=O)Nc4ccccc4C(=O)N3C1Nc1ccccc12 (stereo not drawn)	Tg_72h_%Growth_Rep2	98.02
C[C@@H](O)[C@@H]1NC(=O)[C@@H](N)C[C@@H](O)[C@@H](O)NC(=O)[C@@H]2[C@@H](O)[C@@H](C)CN2C(=O)[C@H]([C@H](O)CC(N)=O)NC(=O)[C@H]([C@H](O)[C@@H](O)c2ccc(O)c(OS(=O)(=O)O)c2)NC(=O)[C@@H]2C[C@@H](O)CN2C1=O [FR 179642] (H-[Orn(4R-OH,5R-OH)]T[Hyp][hTyr(3S-OH,4S-OH,3'-OSO3H)][Gln(3R-OH)][Pro(3S-OH,4S-Me)]; lactam 1-C)	Tg_72h_%Growth_Rep2	86.61
